The origin of these recorded values is patent US7964613B2.

Entries below carry reported IC50 on human ROCK1 (Homo sapiens, UniProt Q13464).
Sequence (Q13464 1-727): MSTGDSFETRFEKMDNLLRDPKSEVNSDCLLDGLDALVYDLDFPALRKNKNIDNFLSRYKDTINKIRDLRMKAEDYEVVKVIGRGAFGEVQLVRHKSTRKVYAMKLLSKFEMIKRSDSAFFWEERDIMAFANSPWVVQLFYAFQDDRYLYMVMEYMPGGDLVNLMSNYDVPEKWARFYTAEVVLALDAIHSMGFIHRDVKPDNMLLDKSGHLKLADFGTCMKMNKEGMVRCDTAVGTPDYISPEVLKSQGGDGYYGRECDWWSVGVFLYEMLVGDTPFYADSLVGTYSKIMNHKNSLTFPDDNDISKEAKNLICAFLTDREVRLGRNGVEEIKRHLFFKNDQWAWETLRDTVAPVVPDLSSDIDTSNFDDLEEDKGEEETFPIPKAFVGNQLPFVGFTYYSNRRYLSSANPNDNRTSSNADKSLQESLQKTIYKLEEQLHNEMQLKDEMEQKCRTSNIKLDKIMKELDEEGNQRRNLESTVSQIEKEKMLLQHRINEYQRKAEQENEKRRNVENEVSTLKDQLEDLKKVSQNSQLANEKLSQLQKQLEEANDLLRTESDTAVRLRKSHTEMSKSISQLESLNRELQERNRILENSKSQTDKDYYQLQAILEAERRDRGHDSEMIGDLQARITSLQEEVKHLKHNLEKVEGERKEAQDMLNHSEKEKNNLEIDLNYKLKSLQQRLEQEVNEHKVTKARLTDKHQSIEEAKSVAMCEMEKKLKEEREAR

q: Which measured IC50 value corresponds to CCc1cncc2cccc(S(=O)(=O)N3CC[C@H](N)C3)c12 [Example 23-1] ?
a: < 1000 nM

q: Input Nc1cncc2cccc(S(=O)(=O)N3CC[C@H](N)C3)c12 [Example 12-1]
a: 1000 to 3000 nM

q: Input O=S(=O)(c1cccc2cncc(Br)c12)N1CC[C@H](NC2CCOCC2)C1 [Example 1-30]
a: 1000 to 3000 nM

q: Input N[C@H]1CCN(S(=O)(=O)c2cccc3c(O)ncc(Br)c23)C1 [Example 7-1]
a: < 1000 nM

q: Input CN(C)CC(=O)N[C@H]1CCN(S(=O)(=O)c2cccc3cncc(Cl)c23)C1 [Example 57-1]
a: 1000 to 3000 nM

q: Input C=CCN[C@H]1CCN(S(=O)(=O)c2cccc3cncc(C)c23)C1 [Example 8-34]
a: < 1000 nM

q: Input Cc1cncc2cccc(S(=O)(=O)N3CC[C@H](NCCc4ccccc4)C3)c12 [Example 8-37]
a: < 1000 nM

q: Input CS(=O)(=O)N[C@H]1CCN(S(=O)(=O)c2cccc3cncc(Cl)c23)C1 [Example 50-1]
a: 1000 to 3000 nM

q: Input CN[C@H]1CCN(S(=O)(=O)c2cccc3cncc(Br)c23)C1 [Example 1-3]
a: < 1000 nM

q: Input Cc1cnc(O)c2cccc(S(=O)(=O)N3CC[C@H](N)C3)c12 [Example 25-1]
a: < 1000 nM

q: Input O=S(=O)(c1cccc2cncc(Br)c12)N1CC[C@H](NCc2ccco2)C1 [Example 4-1]
a: < 1000 nM

q: Input COCC(=O)N[C@H]1CCN(S(=O)(=O)c2cccc3cncc(Cl)c23)C1 [Example 56-1]
a: 1000 to 3000 nM

q: Input Cc1cncc2cccc(S(=O)(=O)N3CC[C@H](NC4CCOCC4)C3)c12 [Example 8-31]
a: 1000 to 3000 nM

q: Input Cc1nc(CN[C@H]2CCN(S(=O)(=O)c3cccc4cncc(Br)c34)C2)c[nH]1 [Example 1-19]
a: 1000 to 3000 nM

q: Input CN[C@H]1CCN(S(=O)(=O)c2cccc3c(N)ncc(Cl)c23)C1 [Example 40-1]
a: 1000 to 3000 nM

q: Input O=C(COC1CCOCC1)N[C@H]1CCN(S(=O)(=O)c2cccc3cncc(Cl)c23)C1 [Example 110]
a: 1000 to 3000 nM

q: Input O=C(N[C@H]1CCN(S(=O)(=O)c2cccc3cncc(Cl)c23)C1)C1CNCCO1 (stereo partly drawn) [Example 102]
a: < 1000 nM

q: Input COc1ccc(CN[C@H]2CCN(S(=O)(=O)c3cccc4cncc(Br)c34)C2)cc1 [Example 1-7]
a: < 1000 nM

---

Give measured pIC50 for each item. Keep answers brief.
# system: human ROCK1 (Homo sapiens, UniProt Q13464)
pIC50: −log10 of the molar value.

q: Which measured pIC50 value corresponds to "Cn1cccc1CN[C@H]1CCN(S(=O)(=O)c2cccc3cncc(Br)c23)C1" ?
a: > 6.00

q: Input "C#Cc1cncc2cccc(S(=O)(=O)N3CC[C@H](N)C3)c12"
a: > 6.00

q: Input "CN[C@@H]1CCN(S(=O)(=O)c2cccc3c(O)ncc(Cl)c23)C1"
a: 5.52 to 6.00

q: Input "O=S(=O)(c1cccc2cncc(F)c12)N1CC[C@H](NCc2ccc3c(c2)OCO3)C1"
a: > 6.00

q: Input "CN[C@H]1CCN(S(=O)(=O)c2cccc3c(O)ncc(Br)c23)C1"
a: > 6.00

q: Input "O=S(=O)(c1cccc2cncc(Br)c12)N1CC[C@H](NCc2ccc3c(c2)OCCO3)C1"
a: > 6.00

q: Input CC(N)C1CCN(S(=O)(=O)c2cccc3cncc(Cl)c23)CC1 (centres unmarked)
a: > 6.00

q: Input "C#Cc1cncc2cccc(S(=O)(=O)N3CC[C@H](NCc4ccco4)C3)c12"
a: 5.52 to 6.00

q: Input "N[C@@H]1CCN(S(=O)(=O)c2cccc3cncc(Cl)c23)C1"
a: > 6.00

q: Input "O=S(=O)(c1cccc2cncc(Cl)c12)N1CC[C@H](NCc2ccc3c(c2)OCO3)C1"
a: > 6.00

q: Input "O=C(COc1cccnc1)N[C@H]1CCN(S(=O)(=O)c2cccc3cncc(Cl)c23)C1"
a: 5.52 to 6.00

q: Input "C#Cc1cncc2cccc(S(=O)(=O)N3CC[C@H](NCc4ccc(OC)cc4)C3)c12"
a: > 6.00

q: Input "Cc1ccc(CN[C@H]2CCN(S(=O)(=O)c3cccc4cncc(Br)c34)C2)cc1"
a: > 6.00

q: Input "NCCCN[C@H]1CCN(S(=O)(=O)c2cccc3cncc(Cl)c23)C1"
a: 5.52 to 6.00

q: Input O=S(=O)(c1cccc2cncc(Br)c12)N1CC[C@H](NC2CCC(O)CC2)C1 (some centres unmarked)
a: 5.52 to 6.00

q: Input "N[C@H]1CCN(S(=O)(=O)c2cccc3c(O)ncc(Cl)c23)C1"
a: > 6.00

q: Input "CN[C@@H]1CCN(S(=O)(=O)c2cccc3cncc(Cl)c23)C1"
a: > 6.00
